tested on: CAMK1; settings: concentration: 1 μM, replicates: in singlicate; n = 1;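 further: KINOMEscan kinase panel screen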
Entries annotated with measured %Inh

mol: Clc1cccc(-c2nc(Nc3ccncc3)c3ccccc3n2)c1
%Inh [%]: 0
//
mol: O=C(Nc1n[nH]c2nc(-c3ccco3)c(Br)cc12)c1ccc(CN2CCCC2)cc1.O=C(O)[C@H](O)[C@@H](O)C(=O)O
%Inh [%]: 0
//
mol: Cl.c1ccc(Cn2ncc3cc(Nc4ncnc5ccccc45)ccc32)cc1
%Inh [%]: 28
//
mol: Fc1cccc(COc2ccc(Nc3ncnc4sc(-c5ccc[nH]5)cc34)cc2Cl)c1
%Inh [%]: 25
//
mol: CCn1c(-c2ccncc2)nc2cnccc21
%Inh [%]: 0
//
mol: Cc1ccc(C)c(NC(=O)NCCNc2ccnc(Nc3ccc(F)cc3)n2)c1
%Inh [%]: 5
//
mol: CCc1nc(-c2cccc(N(C)S(=O)(=O)c3ccccc3)c2)c(-c2ccnc(Nc3ccc(N4CCN(C(C)=O)CC4)nc3)n2)s1
%Inh [%]: 45
//
mol: COc1ccc(-c2oc3ncnc(N)c3c2-c2ccc(OC)cc2)cc1
%Inh [%]: 19
